# assay_target: SIRT1 (Homo sapiens, UniProt Q96EB6)
# Sequence (Q96EB6 whole entry): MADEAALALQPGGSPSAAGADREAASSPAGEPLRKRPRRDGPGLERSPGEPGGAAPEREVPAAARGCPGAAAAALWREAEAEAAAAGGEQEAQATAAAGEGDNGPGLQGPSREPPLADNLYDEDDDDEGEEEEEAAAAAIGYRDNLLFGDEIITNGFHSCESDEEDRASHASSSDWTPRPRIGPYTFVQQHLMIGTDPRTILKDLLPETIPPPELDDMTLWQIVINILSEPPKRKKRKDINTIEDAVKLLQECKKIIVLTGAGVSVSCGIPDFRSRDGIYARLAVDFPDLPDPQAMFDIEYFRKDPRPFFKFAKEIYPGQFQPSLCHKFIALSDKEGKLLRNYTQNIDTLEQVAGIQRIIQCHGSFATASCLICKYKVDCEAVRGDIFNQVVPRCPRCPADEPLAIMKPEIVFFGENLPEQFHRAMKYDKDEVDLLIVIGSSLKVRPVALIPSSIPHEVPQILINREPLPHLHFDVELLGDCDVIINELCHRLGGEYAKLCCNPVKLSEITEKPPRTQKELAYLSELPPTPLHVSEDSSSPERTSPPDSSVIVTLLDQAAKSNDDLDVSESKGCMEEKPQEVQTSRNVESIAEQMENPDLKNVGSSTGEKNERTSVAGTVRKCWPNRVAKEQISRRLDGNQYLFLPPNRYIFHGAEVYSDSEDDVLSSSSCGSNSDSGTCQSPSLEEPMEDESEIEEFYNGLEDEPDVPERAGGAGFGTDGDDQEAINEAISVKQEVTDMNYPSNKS
# method_summary: Trp mass spectrometry assay (SIRT1 activation)
# Assay type: biochemical
# assay_context: Trp mass spectrometry assay; percent maximum fold activation of SIRT1; read-out: Tryp % Fold Act
Recorded Emax, one value per entry.

Reference set, count: 2
O=C(Nc1cnccn1)N1c2nc(-c3cccc(C(F)(F)F)c3)ccc2N2CCC[C@H]1C2 ... ≥ 150%
O=C(Nc1cccnc1)N1c2nc(-c3cccc(C(F)(F)F)c3)ccc2N2C[C@@H](O)[C@H]1C2 ... ≥ 150%

Form field: Emax recorded for O=C(Nc1ccc(F)cn1)N1c2nc(-c3cccc(Cl)c3)ccc2N2CC[C@@H]1C2 with SIRT1 (Homo sapiens, UniProt Q96EB6) (enter value) ≥ 150%

Identify the measured Emax of CCc1cccc(CC)c1NC(=O)N1c2nc(-c3cccc(C(F)(F)F)c3)ccc2N2CC[C@H]1C2 for SIRT1 (Homo sapiens, UniProt Q96EB6). < 150%

Cited source: patent US9765075B2
